Test: Toxicity in adult male mice (LD50)
Conditions: mouse, in vivo, sc, subcutaneous, observed up to 10 days, read-out: LD50 S.C.
Parameter: LD50 at 240 h

- Chem Smiles: "NC(=O)Cn1cc([N+](=O)[O-])sc1=NC(=O)c1cccc([N+](=O)[O-])c1"
  Parameter: "LD50 at 240 h"
  Readout Value: "> 500 mg/kg"
- Chem Smiles: "Cc1ccccc1C(=O)N=c1sc([N+](=O)[O-])cn1CC(N)=O"
  Parameter: "LD50 at 240 h"
  Readout Value: "> 1000 mg/kg"
- Chem Smiles: "CC(=O)NC(=O)Cn1cc([N+](=O)[O-])sc1=NC(=O)c1cccc([N+](=O)[O-])c1"
  Parameter: "LD50 at 240 h"
  Readout Value: "> 2000 mg/kg"
- Chem Smiles: "CC(=O)NC(=O)Cn1cc([N+](=O)[O-])sc1=NC(=O)c1ccccc1C"
  Parameter: "LD50 at 240 h"
  Readout Value: "> 2000 mg/kg"

----------
Assay: Toxicity in adult male mice (LD50)
Details: mouse, in vivo, po, by stomach tube, observed up to 10 days, read-out: LD50 P.O.
Recorded LD50 at 240 h, one value per entry.
Parameter: LD50 at 240 h

- Compound: "CC(=O)NC(=O)Cn1cc([N+](=O)[O-])sc1=NC(=O)c1cccc([N+](=O)[O-])c1"
  Parameter: "LD50 at 240 h"
  Readout Value: "> 2000 mg/kg"
- Compound: "NC(=O)Cn1cc([N+](=O)[O-])sc1=NC(=O)c1cccc([N+](=O)[O-])c1"
  Parameter: "LD50 at 240 h"
  Readout Value: "> 1000 mg/kg"
- Compound: "CC(=O)NC(=O)Cn1cc([N+](=O)[O-])sc1=NC(=O)c1ccccc1 [*(1), reference compound]"
  Parameter: "LD50 at 240 h"
  Readout Value: "953 mg/kg"
- Compound: "CC(=O)NC(=O)Cn1cc([N+](=O)[O-])sc1=NC(=O)c1ccccc1C"
  Parameter: "LD50 at 240 h"
  Readout Value: "> 2000 mg/kg"
- Compound: "Cc1ccccc1C(=O)N=c1sc([N+](=O)[O-])cn1CC(N)=O"
  Parameter: "LD50 at 240 h"
  Readout Value: "> 2000 mg/kg"

----------
Assay: Toxicity in adult male mice (LD50)
Conditions: mouse, in vivo, iv, I.V.
Parameter: LD50

- Compound: "CC(=O)NC(=O)Cn1cc([N+](=O)[O-])sc1=NC(=O)c1ccccc1 [*(1), reference compound]"
  Readout Value: "192 mg/kg"
